# targetSystem: human angiotensin 2 type 1 receptor (human AT1R) (Homo sapiens)
# Construct: expressed in transfected cells
# Sequence (P30556 whole entry): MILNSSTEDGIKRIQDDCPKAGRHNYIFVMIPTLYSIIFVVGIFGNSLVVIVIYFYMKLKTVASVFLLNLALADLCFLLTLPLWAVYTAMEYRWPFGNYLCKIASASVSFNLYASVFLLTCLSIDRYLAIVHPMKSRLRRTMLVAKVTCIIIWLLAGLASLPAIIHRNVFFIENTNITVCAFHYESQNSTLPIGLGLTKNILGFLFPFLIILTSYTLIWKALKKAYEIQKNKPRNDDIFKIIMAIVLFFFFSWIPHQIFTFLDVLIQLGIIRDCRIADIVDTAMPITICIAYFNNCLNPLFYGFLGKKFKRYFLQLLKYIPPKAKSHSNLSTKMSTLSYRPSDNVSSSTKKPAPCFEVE
# experimentNotes: IP1 accumulation assay (IP-One Tb), human AT1R
# Type: cell-based
# measurementSetup: cells expressing human AT1R
Non-standard residues stand in square brackets, D forms with d. Residues, ends and D or L forms follow the SMILES beside them. Sar = CNCC(=O)O
readout: human AT1R IP One EC50 (M)

>  <compound>
CNCC(=O)N[C@@H](CCCNC(=N)N)C(=O)N[C@H](C(=O)N[C@@H](Cc1ccc(O)cc1)C(=O)N[C@@H](Cc1ccc(O)cc1)C(=O)N[C@@H](Cc1c[nH]cn1)C(=O)N1CCC[C@H]1C(=O)O)C(C)C

>  <readout>
human AT1R IP One EC50 (M)

>  <result>
inactive

$$$$
>  <compound>
CC[C@H](C)[C@H](NC(=O)[C@H](Cc1ccc(O)cc1)NC(=O)[C@@H](NC(=O)[C@H](CCCNC(=N)N)NC(=O)CNC)C(C)C)C(=O)N[C@@H](CCCCN)C(=O)N1CCC[C@H]1C(=O)N[C@H](C)C(=O)O [SEQ ID NO:50, Sar-Arg-Val-Tyr-Ile-Lys-Pro-D-Ala-OH] (H-[Sar]RVYIKP[dA]-OH; N-terminus assumed)

>  <readout>
human AT1R IP One EC50 (M)

>  <result>
inactive

$$$$
>  <compound>
CC[C@H](C)[C@H](NC(=O)[C@H](Cc1ccccc1)NC(=O)[C@@H](NC(=O)[C@H](CCCNC(=N)N)NC(=O)CNC)C(C)C)C(=O)N[C@@H](Cc1c[nH]cn1)C(=O)N1CCC[C@H]1C(=O)N[C@H](C)C(=O)O

>  <readout>
human AT1R IP One EC50 (M)

>  <result>
inactive

$$$$
